Source listed as the supplement of paper PMC11196671.

- assay protocol: terephthalic acid (TPA) released, HPLC; higher = more TPA released; extreme values may be limits of the assay
- run parameters: PET substrate: aFilm; 60 °C; pH 7.5; 24 h
recorded endpoint: log10 of terephthalic acid (log10 of the value in mM)

• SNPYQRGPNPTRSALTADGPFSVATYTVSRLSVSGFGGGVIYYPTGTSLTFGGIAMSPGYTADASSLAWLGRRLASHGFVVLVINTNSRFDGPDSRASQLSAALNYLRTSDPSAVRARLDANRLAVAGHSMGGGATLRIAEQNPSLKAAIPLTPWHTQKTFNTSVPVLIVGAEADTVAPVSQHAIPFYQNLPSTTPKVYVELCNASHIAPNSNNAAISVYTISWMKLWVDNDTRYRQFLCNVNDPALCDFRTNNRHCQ [LCC-ICCG DAQI] = 0.51
• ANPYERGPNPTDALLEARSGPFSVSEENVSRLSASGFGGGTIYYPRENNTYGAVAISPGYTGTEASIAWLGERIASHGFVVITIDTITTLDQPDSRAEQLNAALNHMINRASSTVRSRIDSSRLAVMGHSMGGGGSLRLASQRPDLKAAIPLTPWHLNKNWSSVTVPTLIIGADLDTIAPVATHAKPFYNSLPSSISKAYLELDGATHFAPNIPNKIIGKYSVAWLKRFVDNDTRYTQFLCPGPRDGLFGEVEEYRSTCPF [TfCut2] = -0.73
• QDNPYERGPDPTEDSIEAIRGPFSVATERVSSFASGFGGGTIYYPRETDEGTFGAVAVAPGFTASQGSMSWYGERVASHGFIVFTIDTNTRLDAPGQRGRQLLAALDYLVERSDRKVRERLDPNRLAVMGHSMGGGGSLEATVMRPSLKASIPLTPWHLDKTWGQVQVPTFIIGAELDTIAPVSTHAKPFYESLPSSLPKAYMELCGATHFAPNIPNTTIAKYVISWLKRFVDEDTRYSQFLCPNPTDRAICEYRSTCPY [Cut190*SS] = -1.26
• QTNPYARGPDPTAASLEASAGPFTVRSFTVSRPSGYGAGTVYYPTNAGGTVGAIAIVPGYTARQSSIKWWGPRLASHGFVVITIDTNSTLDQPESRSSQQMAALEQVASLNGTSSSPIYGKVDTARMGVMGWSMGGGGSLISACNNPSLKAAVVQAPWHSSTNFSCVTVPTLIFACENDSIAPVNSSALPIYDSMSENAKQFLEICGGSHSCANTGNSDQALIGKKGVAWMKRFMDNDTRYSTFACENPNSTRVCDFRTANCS [Z1-PETase] = -0.16
• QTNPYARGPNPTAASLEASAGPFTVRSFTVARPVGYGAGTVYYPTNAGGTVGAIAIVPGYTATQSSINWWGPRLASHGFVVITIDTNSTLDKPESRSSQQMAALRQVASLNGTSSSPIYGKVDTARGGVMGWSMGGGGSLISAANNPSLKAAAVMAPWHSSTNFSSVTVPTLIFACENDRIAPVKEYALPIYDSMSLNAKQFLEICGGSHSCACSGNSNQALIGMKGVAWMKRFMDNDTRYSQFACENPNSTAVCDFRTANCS [HotPETase] = 0.02
• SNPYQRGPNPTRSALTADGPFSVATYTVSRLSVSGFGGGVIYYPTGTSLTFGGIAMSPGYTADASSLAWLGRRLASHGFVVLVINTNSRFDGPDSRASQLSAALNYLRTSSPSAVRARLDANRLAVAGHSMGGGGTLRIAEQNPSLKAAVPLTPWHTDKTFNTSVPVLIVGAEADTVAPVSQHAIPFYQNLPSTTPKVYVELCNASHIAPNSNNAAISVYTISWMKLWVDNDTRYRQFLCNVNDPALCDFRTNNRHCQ [LCC-ICCG] = 0.53
• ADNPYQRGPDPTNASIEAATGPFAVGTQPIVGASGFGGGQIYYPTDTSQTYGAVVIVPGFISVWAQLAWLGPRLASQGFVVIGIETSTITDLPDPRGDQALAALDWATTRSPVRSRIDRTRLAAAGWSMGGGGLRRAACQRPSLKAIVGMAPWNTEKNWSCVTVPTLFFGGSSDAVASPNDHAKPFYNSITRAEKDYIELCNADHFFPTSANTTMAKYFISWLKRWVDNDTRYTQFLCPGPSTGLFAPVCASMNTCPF [CaPETaseM9] = -0.78
• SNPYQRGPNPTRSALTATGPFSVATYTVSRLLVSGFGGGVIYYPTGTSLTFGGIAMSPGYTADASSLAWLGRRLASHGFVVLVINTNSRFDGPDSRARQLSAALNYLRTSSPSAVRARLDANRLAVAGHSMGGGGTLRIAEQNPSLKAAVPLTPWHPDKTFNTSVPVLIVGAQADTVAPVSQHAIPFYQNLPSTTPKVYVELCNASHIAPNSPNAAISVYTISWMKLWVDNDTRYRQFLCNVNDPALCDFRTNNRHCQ [LCC-ICCG I6M] = 0.45
